Experiment: physchem
Reported Property: pKa

Request: Data request, read-out pKa, for CCCCC/C=C\C/C=C\CCCCCCCCC1(CCCCCCCC/C=C\C/C=C\CCCCC)OCC(CCN(C)C)O1 (stereo not shown)
Result: ~6.7
